Tested on: SK-N-MC
Procedure summary: Antiproliferative activity against human SK-N-MC cells
Type: functional, cell-based
pIC50: −log10 of the molar value.
Measured metric: pIC50

P: CC(=O)N(O)CCCCCNC(=O)CCC(=O)N(O)CCCCCNC(=O)CCC(=O)N(O)CCCCCN
Q: O=C(N/N=C/c1c(O)ccc2ccccc12)c1ccncc1
// max by pIC50 over [ P , Q ] // respond with label for picked entry
Q

---

Tested on: MRC5
Procedure summary: Antiproliferative activity against human MRC5 cells after 72 hrs by MTT assay
Assay type: cell-based
Condition description: MRC5, 72 h
Measured metric: IC50

Need IC50 of `NC(=S)N/N=C/c1c(O)ccc2ccccc12` , thanks.
> 25 µM
